All figures here come from patent US8852554B2.

- target.of.assay: Rat recombinant PDE10A (rPDE10A) (Rattus norvegicus, UniProt Q9QYJ6)
- Sequence (Q9QYJ6 1-794): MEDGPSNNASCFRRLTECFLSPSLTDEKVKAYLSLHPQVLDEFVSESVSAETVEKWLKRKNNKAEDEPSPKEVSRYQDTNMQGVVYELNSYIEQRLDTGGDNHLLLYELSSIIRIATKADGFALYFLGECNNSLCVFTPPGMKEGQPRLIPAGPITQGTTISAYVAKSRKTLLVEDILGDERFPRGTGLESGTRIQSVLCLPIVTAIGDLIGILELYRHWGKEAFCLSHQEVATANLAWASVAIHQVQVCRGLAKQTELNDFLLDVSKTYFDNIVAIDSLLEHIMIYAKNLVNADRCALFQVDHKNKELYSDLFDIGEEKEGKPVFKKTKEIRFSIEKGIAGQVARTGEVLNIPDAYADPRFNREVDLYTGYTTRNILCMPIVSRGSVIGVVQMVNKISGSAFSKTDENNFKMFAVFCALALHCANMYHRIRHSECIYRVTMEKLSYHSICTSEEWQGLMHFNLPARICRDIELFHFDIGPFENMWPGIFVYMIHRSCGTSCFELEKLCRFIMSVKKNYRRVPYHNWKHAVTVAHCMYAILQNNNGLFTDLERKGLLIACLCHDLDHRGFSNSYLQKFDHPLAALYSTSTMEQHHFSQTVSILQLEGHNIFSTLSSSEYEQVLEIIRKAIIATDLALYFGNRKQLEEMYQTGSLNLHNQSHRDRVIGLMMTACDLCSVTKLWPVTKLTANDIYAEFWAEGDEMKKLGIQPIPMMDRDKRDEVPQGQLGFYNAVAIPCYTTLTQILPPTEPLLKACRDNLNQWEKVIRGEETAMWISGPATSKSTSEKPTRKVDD
- test.details: rat PDE10A2-cAMP inhibition, in vitro SPA assay
- assay.context: 60 nM cAMP substrate
Reported IC50 values for a set of compounds

The examples below pair each entry with its known result.
Form field - read-out: IC50; system: Rat recombinant PDE10A (rPDE10A) (Rattus norvegicus, UniProt Q9QYJ6); submitted item: FCCOc1cccnc1COc1ccc(-c2nn(CC(F)(F)F)cc2-c2ccncc2)cc1
6.31 nM

Test system Rat recombinant PDE10A (rPDE10A) (Rattus norvegicus, UniProt Q9QYJ6); read-out IC50; what value for COc1cccnc1COc1ccc(-c2nn(CCCF)cc2-c2ccncc2)cc1 ?
13.2 nM

---
For the record FCCOc1ccc(COc2ccc(-c3nn(CCF)cc3-c3ccncc3)cc2)nc1 , what value of IC50 is listed for Rat recombinant PDE10A (rPDE10A) (Rattus norvegicus, UniProt Q9QYJ6)?
100 nM

* * *

Overview of reported melting point across a group of molecules:
Counter-ions that a name gives are not always drawn.
Returns: string containing the number followed by the unit.

Would you please look over these solved cases?
Requested field: melting point. Item: FCCCn1cc(-c2ccncc2)c(-c2ccc(OCc3ccc(OCCF)cn3)cc2)n1
206.8 °C

Query: melting point; subject: Cc1cccc(COc2ccc(-c3nn(CCCF)cc3-c3ccncc3)cc2)n1 (as salt: hydrochloride)
106.51 °C

Turning to the following molecule.
# melting point lookup, item FCCOc1ccc(COc2ccc(-c3nn(CCF)cc3-c3ccncc3)cc2)nc1
212.7 °C
